Assign pIC50 to each entry below.
biological target: EGFR-L858R (Homo sapiens, UniProt P00533, L858R); assay: HTRF KinEASE-TK activity-based assay, EGFR-L858R
Sequence (P00533 25-1210 L858R): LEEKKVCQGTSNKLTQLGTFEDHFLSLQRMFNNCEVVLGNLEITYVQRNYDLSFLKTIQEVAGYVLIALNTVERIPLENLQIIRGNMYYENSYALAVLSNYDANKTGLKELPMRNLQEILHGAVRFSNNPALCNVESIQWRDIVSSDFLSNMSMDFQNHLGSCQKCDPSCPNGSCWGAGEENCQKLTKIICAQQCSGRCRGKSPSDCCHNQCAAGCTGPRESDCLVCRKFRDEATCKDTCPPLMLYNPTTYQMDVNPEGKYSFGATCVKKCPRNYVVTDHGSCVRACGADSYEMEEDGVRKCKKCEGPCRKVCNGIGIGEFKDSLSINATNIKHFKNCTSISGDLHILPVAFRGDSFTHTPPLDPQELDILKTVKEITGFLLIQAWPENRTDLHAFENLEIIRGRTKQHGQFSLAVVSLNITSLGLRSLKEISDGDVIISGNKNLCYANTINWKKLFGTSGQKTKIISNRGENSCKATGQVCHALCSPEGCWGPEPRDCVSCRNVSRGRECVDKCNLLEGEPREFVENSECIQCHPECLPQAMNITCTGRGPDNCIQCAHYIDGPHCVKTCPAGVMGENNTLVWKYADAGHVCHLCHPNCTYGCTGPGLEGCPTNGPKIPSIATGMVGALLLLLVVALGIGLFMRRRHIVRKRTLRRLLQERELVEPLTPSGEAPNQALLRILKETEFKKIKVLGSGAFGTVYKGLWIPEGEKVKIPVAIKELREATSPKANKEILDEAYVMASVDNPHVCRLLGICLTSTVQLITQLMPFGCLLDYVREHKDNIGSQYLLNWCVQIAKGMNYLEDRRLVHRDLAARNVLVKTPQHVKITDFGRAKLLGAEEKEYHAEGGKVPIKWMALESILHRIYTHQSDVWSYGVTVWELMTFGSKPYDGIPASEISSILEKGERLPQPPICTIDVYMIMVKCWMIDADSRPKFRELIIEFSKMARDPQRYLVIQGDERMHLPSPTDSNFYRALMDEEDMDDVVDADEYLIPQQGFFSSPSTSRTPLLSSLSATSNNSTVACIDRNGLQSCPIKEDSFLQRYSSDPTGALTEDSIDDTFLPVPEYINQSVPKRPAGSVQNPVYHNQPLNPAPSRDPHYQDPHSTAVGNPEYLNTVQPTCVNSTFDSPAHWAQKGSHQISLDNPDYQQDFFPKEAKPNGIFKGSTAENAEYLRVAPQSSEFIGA
Answers are plain numbers, as −log10 of the molar value.

molecule="C=CC(=O)Nc1cccc(-c2c(-c3ccc(N4CCN(C)CC4)cc3)[nH]c3ncn(CC4CC4)c(=O)c23)c1 [Compound 29k]" test_readout=pIC50 recorded_value=9.05
molecule="C=CC(=O)Nc1cccc(-c2c(-c3ccc(N4CCN(C)CC4)cc3)[nH]c3ncn(Cc4ccccc4)c(=O)c23)c1 [Compound 29l]" test_readout=pIC50 recorded_value=8.82

Could you now look at the following molecule, please?
Query: Which pIC50 is reported for this molecule? C=CC(=O)Nc1cccc(-c2c(-c3ccc(N4CCN(C)CC4)cc3)[nH]c3ncn(CCCSC)c(=O)c23)c1 [Compound 29f]
Reply: 8.77
